So I've got a bunch of compounds here, and I need their IC50 values.
- measurement.target: Human HDAC9 (Homo sapiens (Human), UniProt Q9UKV0)
- Sequence (Q9UKV0 other isoform, or with tags, fused parts or gaps): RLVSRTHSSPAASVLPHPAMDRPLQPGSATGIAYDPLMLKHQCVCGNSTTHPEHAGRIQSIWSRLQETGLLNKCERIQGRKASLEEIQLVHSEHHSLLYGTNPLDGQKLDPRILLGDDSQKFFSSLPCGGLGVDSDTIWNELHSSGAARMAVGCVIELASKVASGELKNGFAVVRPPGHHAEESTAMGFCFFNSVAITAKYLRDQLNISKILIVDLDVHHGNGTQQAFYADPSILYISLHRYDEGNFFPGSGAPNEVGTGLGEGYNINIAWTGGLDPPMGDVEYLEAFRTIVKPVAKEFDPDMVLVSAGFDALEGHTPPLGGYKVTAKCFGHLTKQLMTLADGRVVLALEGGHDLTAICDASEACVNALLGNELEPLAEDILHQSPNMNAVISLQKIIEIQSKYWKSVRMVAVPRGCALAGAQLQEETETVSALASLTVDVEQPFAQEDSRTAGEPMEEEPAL
- assay.summary: HDAC9 fluorogenic peptide deacetylation assay
- Format: biochemical
- particulars: human HDAC9, 50 μM substrate, 30° C., 2 h; read-out: IC50 (nM) of enzyme activity HDAC9
Give the number; nM is assumed, so skip it.

Measured IC50, COc1ccc(-c2cc(-c3ccoc3)c(C(=O)NCc3ccc(C(=O)NO)cc3)[nH]2)cc1 : 163

So, O=C(NO)c1ccc(CNC(=O)c2[nH]c(-c3ccc(O)cc3)cc2-c2ccoc2)cc1 ? Its IC50 was 59

So for O=C(NO)c1ccc(CNC(=O)c2[nH]c(-c3ccc(O)cc3)cc2-c2ccsc2)cc1 , the logged IC50 turned out to be 277

response.value for COc1ccc(-c2cc(-c3ccsc3)c(C(=O)NCc3ccc(C(=O)NO)cc3)[nH]2)cc1 (field: IC50) = 478
